Below, each entry is listed with its recorded CC50.
assay: In vitro cytotoxicity against murine macrophages (alamarBlue); type: cell-based; conditions: mouse, Murine macrophages J774.A1 CC50
Metric: CC50

{"columns": ["Compound", "Test Result"],
 "data": [
  ["COC(=O)/C=C/OC(C#N)c1ccc(F)cc1 (stereo not shown)", "> 425 µM"],
  ["COC(=O)/C=C/OC(C#N)c1ccc(C)cc1 (stereo not shown)", "> 800 µM"],
  ["COC(=O)/C=C/OC(C#N)c1ccccc1 (stereo not shown)", "709 µM"],
  ["COC(=O)/C=C/OC(C#N)c1ccccc1C (stereo not shown)", "> 394 µM"],
  ["COC(=O)/C=C\\OC(C#N)c1ccc(C)c(C)c1 (stereo not shown)", "> 408 µM"],
  ["COC(=O)/C=C/OC(C#N)c1cc(OC)c(OC)c(OC)c1 (stereo not shown)", "> 325 µM"],
  ["COC(=O)/C=C\\OC(C#N)c1ccc(C(F)(F)F)cc1 (stereo not shown)", "> 351 µM"]
]}
